biological target: Bifunctional 3'-5' exonuclease/ATP-dependent helicase WRN (Homo sapiens); assay: ADP-Glo Kinase Assay
assay_endpoint: IC50 (µM)
Hi! Could you send only the number? It should be in µM, unit omitted.

Measured IC50, CCc1c(N2CCN(C(=O)c3ncnc(C)c3O)CC2)c(=O)n2nc(-c3ccc4c(c3)CC(F)(F)C4)nc2n1CC(=O)Nc1ccc(C(F)(F)F)cc1Cl [WO2025049746, Example 224] : 0.047

Lookup result for CCc1c(N2CCN(C(=O)c3ncnc(C)c3O)CC2)c(=O)n2nc(C3=CCOCC3)nc2n1CC(=O)NC12CC(C(F)(F)C(F)(F)F)(C1)C2 [WO2025049746, Example 69] ; measured IC50: 0.235

Measured IC50 of CCc1c(N2CCN(C(=O)c3ncnc(C)c3O)CC2)c(=O)n2nc(C3=CCOCC3)nc2n1CC(=O)NC12CC(C3CC3)(C1)C2 [WO2025049746, Example 359] : 0.232

// IC50 lookup, compound = CCc1c(N2CCN(C(=O)c3ncnc(C)c3O)CC2)c(=O)n2nc(-c3ccc4n[nH]cc4c3)nc2n1CC(=O)Nc1ccc(C(F)(F)F)cc1Cl [WO2025049746, Example 258] , result: 0.016

Lab note: measured IC50 of CCc1c(N2CCN(C(=O)c3ncnc(C)c3O)CC2)c(=O)n2nc(-c3cc4c(cc3F)O[C@@H](C)C4)nc2n1CC(=O)Nc1ccc(C(F)(F)F)cc1Cl [WO2025049746, Example 249] was 0.025

###

Quick list: pIC50 per entry.
molecular target: Bifunctional 3'-5' exonuclease/ATP-dependent helicase WRN (Homo sapiens, UniProt Q14191); test: ADP-Glo Kinase Assay
Sequence (Q14191 whole entry): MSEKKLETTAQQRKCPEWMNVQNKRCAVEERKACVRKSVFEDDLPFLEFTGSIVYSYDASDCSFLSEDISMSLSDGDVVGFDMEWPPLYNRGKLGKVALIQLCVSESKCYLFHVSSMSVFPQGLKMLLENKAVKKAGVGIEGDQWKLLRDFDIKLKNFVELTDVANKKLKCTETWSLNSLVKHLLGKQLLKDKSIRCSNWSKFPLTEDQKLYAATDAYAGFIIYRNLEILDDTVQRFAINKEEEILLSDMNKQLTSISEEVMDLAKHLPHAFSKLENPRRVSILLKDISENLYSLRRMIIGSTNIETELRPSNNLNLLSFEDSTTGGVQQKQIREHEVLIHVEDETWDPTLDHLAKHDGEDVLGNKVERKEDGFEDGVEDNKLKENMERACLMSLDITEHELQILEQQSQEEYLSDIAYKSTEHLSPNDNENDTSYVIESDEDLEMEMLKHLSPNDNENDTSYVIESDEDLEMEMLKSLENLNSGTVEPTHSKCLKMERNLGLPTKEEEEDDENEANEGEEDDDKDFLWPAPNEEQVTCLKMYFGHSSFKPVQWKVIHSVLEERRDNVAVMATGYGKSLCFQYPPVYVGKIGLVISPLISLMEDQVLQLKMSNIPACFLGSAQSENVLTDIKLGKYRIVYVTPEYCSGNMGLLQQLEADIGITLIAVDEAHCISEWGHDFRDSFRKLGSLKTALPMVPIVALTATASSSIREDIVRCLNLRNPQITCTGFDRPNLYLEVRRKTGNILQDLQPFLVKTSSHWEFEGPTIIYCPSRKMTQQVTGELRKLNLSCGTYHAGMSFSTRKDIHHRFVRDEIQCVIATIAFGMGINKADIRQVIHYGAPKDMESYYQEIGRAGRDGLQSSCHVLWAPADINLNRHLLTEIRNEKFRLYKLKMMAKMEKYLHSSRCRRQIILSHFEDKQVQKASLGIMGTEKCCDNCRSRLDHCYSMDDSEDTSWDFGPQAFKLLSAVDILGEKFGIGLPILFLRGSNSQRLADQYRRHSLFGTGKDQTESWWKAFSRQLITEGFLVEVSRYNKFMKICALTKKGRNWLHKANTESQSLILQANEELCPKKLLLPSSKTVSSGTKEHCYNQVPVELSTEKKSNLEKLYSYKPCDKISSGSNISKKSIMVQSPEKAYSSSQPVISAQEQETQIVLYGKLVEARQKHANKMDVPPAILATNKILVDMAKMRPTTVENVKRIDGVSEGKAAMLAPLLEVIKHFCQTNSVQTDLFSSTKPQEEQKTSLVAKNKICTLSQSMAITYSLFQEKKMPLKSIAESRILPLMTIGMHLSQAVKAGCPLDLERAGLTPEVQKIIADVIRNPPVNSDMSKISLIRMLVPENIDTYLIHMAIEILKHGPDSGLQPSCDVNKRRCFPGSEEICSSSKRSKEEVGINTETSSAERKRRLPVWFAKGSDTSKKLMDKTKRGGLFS
Just the number, please; pIC50 means minus log10 of the concentration in mol/L.

Worked cases, answers included:
Field pIC50 (entry CCc1c(N2CCN(C(=O)c3cccc4c3NS(=O)(=O)CC4)CC2)c(=O)n2nc(-c3ccc4c(c3)COC4)nc2n1CC(=O)Nc1ccc(C(F)(F)F)cc1Cl ) reads 7.47

pIC50 recorded for this compound, CCc1c(N2CCN(C(=O)c3ncnc(C)c3O)CC2)c(=O)n2nc(N3CCC3)nc2n1CC(=O)Nc1c(Cl)cc(C(F)(F)F)c2c1CC2 , is 7.03

Please turn your attention to the following entry.
// pIC50 value for CCc1c(N2CCN(C(=O)c3ncnc(C)c3O)CC2)c(=O)n2nc(-c3ccc4c(c3)CCOC4)nc2n1CC(=O)Nc1ccc(SC(F)(F)F)cc1Cl : 7.37

###

Listing of recorded pIC50 by entry.
target: Bifunctional 3'-5' exonuclease/ATP-dependent helicase WRN [480-1251] (UniProt Q14191); construct: 480-1251; assay: Biochemical Activity Assays
Sequence (Q14191 480-1251): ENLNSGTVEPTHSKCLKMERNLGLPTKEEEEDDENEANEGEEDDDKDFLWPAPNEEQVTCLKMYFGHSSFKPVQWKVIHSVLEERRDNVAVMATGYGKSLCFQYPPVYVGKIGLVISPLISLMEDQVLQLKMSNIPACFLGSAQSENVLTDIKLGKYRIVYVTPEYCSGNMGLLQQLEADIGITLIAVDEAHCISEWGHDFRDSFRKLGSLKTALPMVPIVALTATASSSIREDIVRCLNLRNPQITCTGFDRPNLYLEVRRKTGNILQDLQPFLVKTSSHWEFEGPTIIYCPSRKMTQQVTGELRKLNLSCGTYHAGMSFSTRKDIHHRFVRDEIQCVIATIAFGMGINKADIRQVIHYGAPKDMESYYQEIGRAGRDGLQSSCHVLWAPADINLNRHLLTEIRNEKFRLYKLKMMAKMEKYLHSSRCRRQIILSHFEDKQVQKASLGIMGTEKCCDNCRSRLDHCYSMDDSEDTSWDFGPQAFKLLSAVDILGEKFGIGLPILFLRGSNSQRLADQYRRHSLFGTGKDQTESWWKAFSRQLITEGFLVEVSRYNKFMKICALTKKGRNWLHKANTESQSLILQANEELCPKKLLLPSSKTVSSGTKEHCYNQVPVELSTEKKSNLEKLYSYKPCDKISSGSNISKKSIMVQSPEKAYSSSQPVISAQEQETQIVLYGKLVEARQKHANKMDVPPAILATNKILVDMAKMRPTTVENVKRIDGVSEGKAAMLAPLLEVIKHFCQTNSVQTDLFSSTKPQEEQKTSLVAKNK
Friendly reminder that pIC50 comes from taking -log10 of the concentration in mol/L.

Example results:
// CCc1c(N2CCN(C(=O)c3ncnc(C)c3O)CC2)c(=O)n2nc(C3=CCOCC3)nc2n1CC(=O)Nc1ccc(C(F)(F)C(F)(F)Cl)cc1 : pIC50 value = 7.73

GET /value?item= CCc1c(N2CCN(C(=O)c3ncnc(C)c3O)CC2)c(=O)n2nc(-c3ccc4c(c3)CCOC4)nc2n1CC(=O)Nc1ccc(Cl)c(OC(F)F)c1Cl &field=pIC50 returns 7.44

Could you now look at the following compound, please?
Quick note, pIC50 for CCc1c(N2CCN(C(=O)c3ncnc(C)c3O)CC2)c(=O)n2nc(-c3ccc4c(c3)[C@H](C)OC4)nc2n1CC(=O)Nc1ccc(C(F)(F)F)cc1Cl landed at 7.54
